method notes: Solubility in neutral aqueous solution
Type: physicochemical
value type: solubility

Incoming: // lookup solubility for Cc1ccc(S(=O)(=O)n2ccc3c(OCC(O)CN(CCCN)C(=O)N4CCC(C5CCN(C(=O)C67CC8CC(CC(C8)C6)C7)CC5)CC4)cccc32)cc1 (stereo not shown)
Outgoing: ~1000 µM

----------
assayed system: ESX-Sur-2 interaction (Homo sapiens)
Construct: made in house
Sequence (Q9ULK4 352-625): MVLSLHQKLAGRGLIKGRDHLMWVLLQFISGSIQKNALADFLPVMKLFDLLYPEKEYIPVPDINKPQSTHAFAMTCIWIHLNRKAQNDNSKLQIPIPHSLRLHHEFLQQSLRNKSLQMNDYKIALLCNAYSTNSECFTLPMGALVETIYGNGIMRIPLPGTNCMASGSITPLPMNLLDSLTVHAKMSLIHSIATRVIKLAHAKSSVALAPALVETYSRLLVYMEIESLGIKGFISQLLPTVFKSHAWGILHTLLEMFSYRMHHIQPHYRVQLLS
method notes: Inhibition of the ESX-Sur-2 interaction in vitro (fluorescence of FITC-ESX129-145 with GST-Sur2352-625)
Assay type: binding
reported conditions: in vitro fluorescence assay
value type: inhibition of the ESX-Sur-2 interaction in vitro (in words)

COCC(O)CN(C(=O)N1CCC(C2CCN(C(=O)C34CC5CC(CC(C5)C3)C4)CC2)CC1)C(C)C (stereo not drawn) [Compound 12a]    abolished
O=C(NCC(O)COc1cccc2[nH]ccc12)N1CCC(C2CCN(C(=O)C34CC5CC(CC(C5)C3)C4)CC2)CC1 (stereo not drawn)    abolished

----------
assayed system: ESX-Sur-2 interaction (Homo sapiens, UniProt Q9ULK4)
method notes: Inhibition of the ESX-Sur-2 interaction in vitro (fluorescence of FITC-ESX129-145 with GST-Sur2352-625)
reported conditions: FITC-ESX129-145 (152 nM), GST-Sur2352-625 (212 nM)
value type: IC50 (µM)
Hi! Could you send only the number? It should be in µM, unit omitted.

Solved entries (count: 2):
Cc1ccc(S(=O)(=O)n2ccc3c(OCC(O)CN(CCCCCN)C(=O)N4CCC(C5CCN(C(=O)C67CC8CC(CC(C8)C6)C7)CC5)CC4)cccc32)cc1 (stereo not drawn)    10
CC(C)N(CC(O)COc1cccc2c1ccn2S(=O)(=O)c1cccc2cccnc12)C(=O)N1CCC(C2CCN(C(=O)C34CC5CC(CC(C5)C3)C4)CC2)CC1 (stereo not drawn)    12

Consider the additional compound presented here.
Incoming: API: value(readout=IC50, system=ESX-Sur-2 interaction (Homo sapiens, UniProt Q9ULK4)) for record Cc1ccc(S(=O)(=O)n2ccc3c(OCC(O)CN(C(=O)N4CCC(C5CCN(C(=O)C67CC8CC(CC(C8)C6)C7)CC5)CC4)C(C)C)cccc32)cc1 (stereo not drawn)
Outgoing: 10

----------
Catalogue of IC50 values
assayed system: ESX-Sur-2 interaction (Homo sapiens, UniProt Q9ULK4)
method notes: Inhibition of the ESX-Sur-2 interaction in vitro (fluorescence of FITC-ESX129-145 with GST-Sur2352-625)
reported conditions: FITC-ESX129-145 (152 nM), GST-Sur2352-625 (212 nM)
Kindly answer with a numeric value in µM, unit omitted.

Field: example entries. Status: answers known.
CC(C)(C)OC(=O)NCCCN(CC(O)COc1cccc2[nH]ccc12)C(=O)N1CCC(C2CCN(C(=O)C34CC5CC(CC(C5)C3)C4)CC2)CC1 (stereo not shown) [Compound 4e]    11.9
Cc1ccc(S(=O)(=O)n2ccc3c(OCC(O)CN(CCCN)C(=O)N4CCC(C5CCN(C(=O)C67CC8CC(CC(C8)C6)C7)CC5)CC4)cccc32)cc1 (stereo not shown) [Compound 7a]    10.2
CC(C)N(CC(O)COc1cccc2[nH]ccc12)C(=O)N1CCC(C2CCN(C(=O)C34CC5CC(CC(C5)C3)C4)CC2)CC1 (stereo not shown) [Compound 4a]    15.4

Incoming: ESX-Sur-2 interaction (Homo sapiens, UniProt Q9ULK4) / IC50 / CC(C)CN(CC(O)COc1cccc2[nH]ccc12)C(=O)N1CCC(C2CCN(C(=O)C34CC5CC(CC(C5)C3)C4)CC2)CC1 (stereo not shown) [Compound 4b] : value?
Outgoing: 15.1

----------
Some molecules, each annotated with its measured IC50.
assayed system: ESX-Sur-2 interaction (Homo sapiens, UniProt Q9ULK4)
Sequence (Q9ULK4 352-625): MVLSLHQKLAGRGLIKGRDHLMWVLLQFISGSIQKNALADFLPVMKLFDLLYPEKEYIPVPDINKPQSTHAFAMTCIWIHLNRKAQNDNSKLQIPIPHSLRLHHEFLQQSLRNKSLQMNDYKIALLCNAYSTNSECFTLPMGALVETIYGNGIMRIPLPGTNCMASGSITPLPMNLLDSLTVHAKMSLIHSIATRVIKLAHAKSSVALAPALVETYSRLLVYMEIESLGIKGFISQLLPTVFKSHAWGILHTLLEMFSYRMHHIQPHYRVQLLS
method notes: Inhibition of the ESX-Sur-2 interaction in vitro (fluorescence of FITC-ESX129-145 with GST-Sur2352-625)
reported conditions: FITC-ESX129-145 (152 nM), GST-Sur2352-625 (212 nM)

Solved entries:
CC(=O)N1CCC(C2CCN(C(=O)N(CC(O)COc3cccc4[nH]ccc34)C(C)C)CC2)CC1 (stereo not drawn) [Compound 11a]    > 40 µM
COCC(O)CN(C(=O)N1CCC(C2CCN(C(=O)C34CC5CC(CC(C5)C3)C4)CC2)CC1)C(C)C (stereo not drawn) [Compound 12a]    > 40 µM

As a next step, examine the molecule that follows.
Incoming: Param item = O=C(NCC(O)COc1cccc2[nH]ccc12)N1CCC(C2CCN(C(=O)C34CC5CC(CC(C5)C3)C4)CC2)CC1 (stereo not drawn) ; retrieve measured IC50.
Outgoing: > 40 µM
